- target system: c-Src SH2;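 note: peptide library displayed on the E. coli surface as eCPX fusions, selected cells deep-sequenced, score is each peptide's frequency after selection divided by its frequency in the input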
- assay protocol: SH2 binding enrichment of the phosphorylated peptide, bacterial display (enrichment ratio); higher = better substrate or ligand; peptides without Tyr show the background
outcome measure: SH2 binding enrichment
No unit in the answer, please; the number alone is enough.

So for RIAFQYGDTDL [MYBPC3_Y340_V342D] , the logged SH2 binding enrichment turned out to be 0.577

So for KKHIPYSEHKS [CSNK1G2_Y206_R207S] , the logged SH2 binding enrichment turned out to be 1.51

So for ANFTEYVATRW [CDKL5_Y171_YF] , the logged SH2 binding enrichment turned out to be 0.523

So for FDNPIYQKTTE [LDLR_Y828_V827I] , the logged SH2 binding enrichment turned out to be 0.632

So for RLLVVYPWTRR [HBB_Y36_Q40R] , the logged SH2 binding enrichment turned out to be 0.465

So for TKFRNYLIPNG [CYP2C8_Y379_K383N] , the logged SH2 binding enrichment turned out to be 0.462

So for LFHENYNAGTY [CFI_Y421_I416L] , the logged SH2 binding enrichment turned out to be 0.704

So for SARFHYLMAEK [LDHB_Y173_R172H] , the logged SH2 binding enrichment turned out to be 0.455

So for RLSVDYGKKSK [TUBA3E_Y161_S162G] , the logged SH2 binding enrichment turned out to be 0.83

So for RFLERYIYNRE [HLA-DPB1_Y57] , the logged SH2 binding enrichment turned out to be 1.28

So for PPVVNYEQDAR [FER_Y402_E404Q] , the logged SH2 binding enrichment turned out to be 0.728

So for RLRKFHLGKFL [KLB_Y906_Y906H_YF] , the logged SH2 binding enrichment turned out to be 0.303

So for SLNEEYAKNKT [MSH2_Y563_T564A] , the logged SH2 binding enrichment turned out to be 0.482

So for WISNRSLDFSS [PRPH2_Y184_Y184S] , the logged SH2 binding enrichment turned out to be 0.419

So for ANKNVYEVEPT [MEGF10_Y1075_R1072K] , the logged SH2 binding enrichment turned out to be 1.59

So for YFWDGYMPRQY [GSS_Y270_R267W] , the logged SH2 binding enrichment turned out to be 1.07

So for LSTPEYGPKLK [TBC1D14_Y46_A43T] , the logged SH2 binding enrichment turned out to be 0.445

So for GTFEDYVEGLR [MYL6_Y89_YF] , the logged SH2 binding enrichment turned out to be 0.5

So for QISRDYGVLLE [PRDX3_Y172] , the logged SH2 binding enrichment turned out to be 0.576

So for KDHPDYKYQLR [SOX10_Y171_P175L] , the logged SH2 binding enrichment turned out to be 0.631

So for IKNSGYISRYL [EIF2AK3_Y585] , the logged SH2 binding enrichment turned out to be 0.706

So for ATHSGYRLNDF [CLDN14_Y233_YF] , the logged SH2 binding enrichment turned out to be 0.421

So for RRNTPYSQTMK [TET2_Y819_S817T] , the logged SH2 binding enrichment turned out to be 0.611

So for SEPSGYQDNIA [DES_Y363_A360P] , the logged SH2 binding enrichment turned out to be 0.476

So for TYQYKYPEGSS [TGM4_Y440_E437Q] , the logged SH2 binding enrichment turned out to be 0.631

So for GFWPRYVKVGS [NOG_Y172_R167G] , the logged SH2 binding enrichment turned out to be 0.443

So for CEAMEYQESKQ [BTK_Y511_L512Q] , the logged SH2 binding enrichment turned out to be 0.437

So for HSFNSYTFPRL [PAK5_Y316_YF] , the logged SH2 binding enrichment turned out to be 0.481
